test system: HL-60(TB) leukemia; assay: NCI-60 one-dose screen, 48 h (100 = growth as untreated, 0 = no growth, -100 = all killed); conditions: 10 µM unless noted
About 83,000 compounds went through this panel and 20% of them were active in at least one assay; those are over-represented in the sample as a whole.
label 1 means recorded growth is 90% or above; label 0 means it is below 90%.

>>> label_class("CN(C)c1ccc(N=Cc2ccc(N3CCOCC3)cc2)cc1")
"label 0"
>>> label_class("CC/C(=C(/c1ccc(Cl)cc1)c1ccc(OCCN2CCCC2)cc1)c1ccccc1")
"label 0"
>>> label_class("Clc1cccc(Nc2ncnc3ccc(-c4cnc5[nH]ccc5c4)cc23)c1")
"label 1"
>>> label_class("CC(C)NCC(O)COc1ccc(CC(N)=O)cc1 (stereo not given)")
"label 1"
>>> label_class("Cc1cccc(C[C@H](NC(=O)Nc2ccc(Cl)cc2F)C(=O)N[C@@H]2C(=O)N3C[C@H](O)C[C@H]3C(=O)N3CCCC[C@H]3C(=O)N[C@@H](C)C(=O)N3C[C@H](C)C[C@H]3C(=O)O[C@H]2C)c1")
"label 0"
>>> label_class("COc1cc2nc(SCc3cc(OC)c(OC)c(OC)c3)n(-c3ccccc3OC)c(=O)c2cc1OC")
"label 0"
>>> label_class("c1ccc(N2CCN(c3nncc4ccccc34)CC2)nc1")
"label 1"
>>> label_class("O=c1oc2ccc(Br)cc2c(=O)n1-c1ccc(Br)cc1F")
"label 0"
>>> label_class("CC(=O)Nc1ccc(C(=O)Nc2cc(-c3ccccc3)ccc2N)cc1")
"label 0"

====

test system: HL-60(TB) leukemia; experiment: NCI-60 one-dose screen, 48 h (100 = growth as untreated, 0 = no growth, -100 = all killed); settings: 10 µM unless noted
Compounds without any hit were thinned out: in the full panel of roughly 83,000, 20% have a hit.
Rule: growth below 50% gives satisfied, anything at or above gives not satisfied.

>>> label_class("O/N=C1\\CCC2CCCCC2C1 (stereo unspecified)")
"not satisfied"
>>> label_class("COc1cc(/C=C/C(=O)c2c(C)nc3ccccc3c2/C=C/c2ccc(C)cc2)cc(OC)c1OC")
"satisfied"
>>> label_class("Nc1ncnc2c1N=C(c1ccc3c(c1)OCO3)CC(c1ccc(Cl)cc1)N2 (stereo unspecified)")
"not satisfied"
>>> label_class("COc1cc[c]([Hg][Cl])cc1")
"satisfied"
>>> label_class("CC(=O)OCCO")
"not satisfied"
>>> label_class("Nc1nc(SCC2(CCl)COC2)c2[nH]cnc2n1")
"not satisfied"
>>> label_class("O=c1[nH]c(-c2cn(-c3ccc(Cl)cc3)nn2)nc2ccccc12")
"not satisfied"
>>> label_class("Oc1c(I)cc(I)cc1CNCCCN(Cc1ccccn1)Cc1ccccn1")
"satisfied"
>>> label_class("NCCCNc1nc2ccccc2c2c(=O)c3cc(OC(F)(F)F)ccc3sc12")
"satisfied"
>>> label_class("CN(C)P1(N(C)C)=NP(N(C)C)(N(C)C)=NP(N(C)C)(N(C)C)=N1")
"not satisfied"
>>> label_class("COc1ccc(NC(=O)Nc2ccc(OCCCCCC(=O)NO)cc2)cc1")
"not satisfied"
>>> label_class("COc1ccc(C2CC(c3cccc(Nc4ccncc4)c3)=NN2c2cc(Cl)cc(Cl)c2)cc1 (stereo unspecified)")
"satisfied"
>>> label_class("N#C/C(=C\\c1c(-c2ccccc2)[nH]c2ccccc12)C(=O)c1ccc(Cl)cc1")
"satisfied"
>>> label_class("Oc1[nH]c2ccc(Cl)cc2c1/C=c1/ccc2c(c1)N=C(c1cccs1)N=2")
"not satisfied"
>>> label_class("CC(C)=CCC[C@](C)(O)[C@H]1CC[C@]2(C)[C@@H]1CC[C@@H]1[C@@]3(C)C/C(=C/c4ccc(Br)cc4)C(=O)C(C)(C)[C@@H]3CC[C@]12C")
"not satisfied"
>>> label_class("O=C(Nc1ccc(CO)cc1)c1ccccc1Nc1ccnc(C(F)(F)F)c1")
"not satisfied"
>>> label_class("C=C1C(=O)O[C@H]2[C@H]1CC/C(COC(=O)NCc1cn(C)c3ccccc13)=C\\CC[C@@]1(C)O[C@@H]21")
"satisfied"
>>> label_class("O=c1ccc2c(ccc3ncccc32)o1")
"not satisfied"
>>> label_class("Cn1cc(-c2nn3cc(-c4ccccc4)nc3s2)c2ccccc21")
"not satisfied"
>>> label_class("CN1CCN(c2nc(NCCNc3ccnc4cc(Cl)ccc34)c3ccccc3n2)CC1")
"satisfied"
>>> label_class("Cc1nn2c(/C=C3/C(=O)Nc4ccc(Cl)cc43)c(-c3ccccc3)nc2s1")
"not satisfied"
>>> label_class("Nc1cc(Br)c(-c2nn3c(CCC(=O)c4nc5ccccc5[nH]4)nnc3s2)c(Br)c1")
"not satisfied"
>>> label_class("O=C1/C(=C/c2ccccc2)CN(C(=O)c2cccnc2)C/C1=C\\c1ccccc1")
"satisfied"
>>> label_class("CS(=O)(=O)Nc1cc(-c2ccc3ncnc(Nc4ccc5c(cnn5Cc5ccncc5)c4)c3c2)cnc1Cl")
"satisfied"
>>> label_class("Cc1ccc(-n2cc(-c3ccccc3)c3c2N=NN2CCN=C32)cc1")
"not satisfied"
>>> label_class("CCn1cc2c(cc1=O)-c1nc3ccccc3c3ccnc(c13)C2=O")
"not satisfied"
>>> label_class("COC(=O)c1c2c(c(C)[n+]([O-])c1C)C(=O)C=C(NCc1ccc(F)c(Cl)c1)C2=O")
"satisfied"
>>> label_class("O=c1oc2ccc(Cl)cc2c(=O)n1-c1ccc(F)cc1F")
"satisfied"
>>> label_class("Cn1ncc2c(Sc3ccc(Cl)cc3)ncnc21")
"not satisfied"
>>> label_class("Cn1ccnc1C(=O)/C=C/c1ccc(CC(=O)Nc2ccc(S(F)(F)(F)(F)F)cc2)cc1")
"satisfied"
>>> label_class("CN(C)c1nc(-c2ccco2)n2nc(-c3ccco3)cc2n1")
"not satisfied"
>>> label_class("Cc1nc2cc(Nc3nc(Nc4ccc(F)cc4)nc(-c4cccs4)n3)ccc2n1Cc1ccccc1")
"satisfied"
>>> label_class("CC[N+](CCCCCCCCCC[N+](CC)(c1ccccn1)c1ccccn1)(c1ccccn1)c1ccccn1")
"satisfied"
>>> label_class("COc1ccc2c(c1)nc(N)c1c3cccnc3cn21")
"satisfied"
>>> label_class("O=C(Cn1cc(CN2C(=O)c3ccccc3S2(=O)=O)nn1)Nc1ccc([N+](=O)[O-])cc1Cl")
"not satisfied"

====

tested on: SF-539 CNS; assay: NCI-60 one-dose screen, 48 h (100 = growth as untreated, 0 = no growth, -100 = all killed); conditions: 10 µM unless noted
About 83,000 compounds went through this panel and 20% of them were active in at least one assay; those are over-represented in the sample as a whole.
readout: growth (%)

>>> readout_value("O=C(CI)Nc1ccc(Br)cc1")
95.8
>>> readout_value("COc1cc(C2=NN(c3ccccc3)C(c3sc(N(CCCl)CCCl)nc3Cl)C2)cc(OC)c1OC (stereo not given)")
110
>>> readout_value("CC[C@]12C=CCN3CC[C@@]4(c5ccc(OC)cc5N(C)[C@H]4[C@@](O)(C(=O)OC)[C@@H]1OC(=O)CCCN1CCN(CCCC(=O)O[C@@H]4[C@]5(CC)C=CCN6CC[C@@]7(c8ccc(OC)cc8N(C)[C@H]7[C@@]4(O)C(=O)OC)[C@@H]65)CC1)[C@@H]32")
-95.5
>>> readout_value("NC(=O)NC(=O)CI")
109
>>> readout_value("NS(=O)(=O)c1nc[nH]c1[N+](=O)[O-]")
100
>>> readout_value("CC1(C)CC2(CC(C)(C)c3cc(O)c(O)cc32)c2cc(O)c(O)cc21")
98.4
>>> readout_value("Nc1nc(N)c(-c2ccc(Cl)c(Cl)c2)c(/C=C/c2ccc(S(=O)(=O)F)cc2)n1")
80.1
>>> readout_value("C/C(=N/OC(=O)N(C)C)c1ccc(Cl)cc1Cl")
95.9
>>> readout_value("CCCCNCCc1ccccn1")
109
>>> readout_value("C1CN1c1nc(N2CC2)nc(N2CC2)n1")
-7.16
>>> readout_value("CC(C)CCC1(CCO)C(=O)NC(=S)NC1=O")
125
>>> readout_value("CC(=O)[O][Hg][c]1ccccc1")
-53.6
>>> readout_value("CC12CCC(=O)C=C1CCC1C2CCC2(C)C(C(=O)COC(=O)Cc3ccc(N(CCCl)CCCl)cc3)CCC12 (stereo not given)")
63
>>> readout_value("CC(C)OC(=S)[S-].[Au+].c1ccc([PH+](c2ccccc2)c2ccccc2)cc1")
7.83
>>> readout_value("CO[C@@H]([CH2][Hg][S]C#N)[C@@H]([CH2][Hg][S]C#N)OC")
125
>>> readout_value("O=C(O)C1(Br)CC12c1ccccc1-c1ccccc12 (stereo not given)")
103
>>> readout_value("O=c1cc[nH]c(=O)o1")
104
>>> readout_value("OC1CCCCC1N1CCC(c2ccccc2)CC1 (stereo not given)")
119
>>> readout_value("NC(Cc1ccc2c(c1)OCO2)c1ccc2c(c1)OCO2 (stereo not given)")
114
>>> readout_value("C[CH2][Pb]([CH2]C)([CH2]C)[O]C(=O)COC")
-41.8
>>> readout_value("CC[C@@H](C)/C=C(C)/C=C/C(=O)c1c(O)c(-c2ccc(O)cc2)cn(O)c1=O")
5.1
>>> readout_value("O=C(CCc1ccco1)NC1CCN(CC2(c3ccc(Cl)cc3)CCC2)CC1")
34.5
>>> readout_value("OC1(c2ccccc2F)c2ccccc2C2=NCCN21 (stereo not given)")
100
>>> readout_value("CNC(=O)Oc1ccccc1")
107
>>> readout_value("CC(=O)O[C@H]1CCC2C3CCC4=C/C(=N/O)CCC4(C)C3CCC21C (stereo not given in full)")
87.6
>>> readout_value("CCC[CH2][Sn]1([CH2]CCC)[O]C(=O)c2cccc([N+](=O)[O-])c2C(=O)[O]1")
-99.5
>>> readout_value("COC[CH2][Hg][C]#[C][Hg][CH2]COC")
90.7
>>> readout_value("[N-]=[N+]=NC(C(=O)O)c1ccccc1 (stereo not given)")
93.9
>>> readout_value("CC1(C)N=C(N)N=C(N)N1c1ccc(OCCCCNC(=O)Nc2cccc(S(=O)(=O)F)c2)c(Cl)c1")
40.1
>>> readout_value("[Br][Pb]([c]1ccccc1)([c]1ccccc1)[c]1ccccc1")
-90.6
>>> readout_value("C[C@]12C[C@H](O)[C@H]3[C@@H](CCC4=CC(=O)CC[C@@]43C)[C@@H]1CC[C@@H]2O")
99
>>> readout_value("O=C1NC(=O)C(CN2C(=O)C3(c4ccccc42)[C@H](Cl)C(=O)N3c2ccccc2)C(=O)N1 (stereo not given in full)")
74.1
>>> readout_value("COc1cc(C2CC(=O)Nc3nc(N)[se]c32)cc(OC)c1OC (stereo not given)")
101
>>> readout_value("C[C@@H]1CC[C@@H]2[C@@H]1[C@H](OC(=O)/C=C/C1CCCCC1)[C@]1(C3CCCCC3)C[C@@H](OC(=O)CO)[C@@]2(C)O1")
95.9
>>> readout_value("NC(=O)SCC(=O)Nc1ccc([As](=O)(O)O)cc1")
83.8
>>> readout_value("CC(/C=N/N=C(N)N)=N/N=C(N)N")
73.9
>>> readout_value("CCCCN(CCCC)CC(O)c1ccccc1 (stereo not given)")
114
>>> readout_value("CCOC(=O)c1cnc(SCc2ccc(Cl)c(Cl)c2)nc1N1CC1")
44.1
>>> readout_value("C[C@]12CC[C@H]3[C@@H](C[C@@H]4N=C(c5ccc(O)cc5)S[C@@]45C[C@H](O)CC[C@]35C)[C@@H]1CC[C@@H]2O")
8.02
>>> readout_value("O=S(=O)(F)c1ncnc2nc[nH]c12")
88.1
